Listing: bioavailability of selected compounds
- experiment: Oral bioavailability in Wistar Han rat at 5 mg/kg measured after 24 hrs
- Assay type: ADME, organism-based
- details: in vivo
Quick note: give the figure in %, leave out the unit.

{"smiles.string": "Cc1nnc(-c2ccc(-c3c(F)c(F)cc4c3C(=O)N([C@H](C3CC3)C(C)(C)O)C4)cc2)o1", "bioavailability, %": 36}
{"smiles.string": "Cc1nnc(-c2ccc(-c3cc(F)c(F)c4c3C(=O)N([C@H](C3CC3)C(C)(C)O)C4)cc2)o1", "bioavailability, %": 57}
{"smiles.string": "Cc1nnc(-c2ccc(-c3c(F)c(F)cc4c3C(=O)N([C@@H](C(C)(C)O)C(F)(F)F)C4)cc2)o1", "bioavailability, %": 83}

Below: the item to evaluate.
Entry Cc1nnc(-c2ccc(-c3cccc4c3C(=O)N([C@H](C3CC3)C(C)(C)O)C4)cc2)o1 needs its bioavailability filled in; supply it. 100
